activation listing for selected compounds.
molecular target: UniProt Q8C129; assay: IRAP activators, dose response, selectivity assay for ERAP1 modulator project, biochemical, Leu-AMC fluorescence, cherry-picked samples (AID 743339); details: purified IRAP, Leu-AMC cleavage fluorescence, 1 h; at 11 µM (top of the series)
Sequence (Q8C129 whole entry, looked up): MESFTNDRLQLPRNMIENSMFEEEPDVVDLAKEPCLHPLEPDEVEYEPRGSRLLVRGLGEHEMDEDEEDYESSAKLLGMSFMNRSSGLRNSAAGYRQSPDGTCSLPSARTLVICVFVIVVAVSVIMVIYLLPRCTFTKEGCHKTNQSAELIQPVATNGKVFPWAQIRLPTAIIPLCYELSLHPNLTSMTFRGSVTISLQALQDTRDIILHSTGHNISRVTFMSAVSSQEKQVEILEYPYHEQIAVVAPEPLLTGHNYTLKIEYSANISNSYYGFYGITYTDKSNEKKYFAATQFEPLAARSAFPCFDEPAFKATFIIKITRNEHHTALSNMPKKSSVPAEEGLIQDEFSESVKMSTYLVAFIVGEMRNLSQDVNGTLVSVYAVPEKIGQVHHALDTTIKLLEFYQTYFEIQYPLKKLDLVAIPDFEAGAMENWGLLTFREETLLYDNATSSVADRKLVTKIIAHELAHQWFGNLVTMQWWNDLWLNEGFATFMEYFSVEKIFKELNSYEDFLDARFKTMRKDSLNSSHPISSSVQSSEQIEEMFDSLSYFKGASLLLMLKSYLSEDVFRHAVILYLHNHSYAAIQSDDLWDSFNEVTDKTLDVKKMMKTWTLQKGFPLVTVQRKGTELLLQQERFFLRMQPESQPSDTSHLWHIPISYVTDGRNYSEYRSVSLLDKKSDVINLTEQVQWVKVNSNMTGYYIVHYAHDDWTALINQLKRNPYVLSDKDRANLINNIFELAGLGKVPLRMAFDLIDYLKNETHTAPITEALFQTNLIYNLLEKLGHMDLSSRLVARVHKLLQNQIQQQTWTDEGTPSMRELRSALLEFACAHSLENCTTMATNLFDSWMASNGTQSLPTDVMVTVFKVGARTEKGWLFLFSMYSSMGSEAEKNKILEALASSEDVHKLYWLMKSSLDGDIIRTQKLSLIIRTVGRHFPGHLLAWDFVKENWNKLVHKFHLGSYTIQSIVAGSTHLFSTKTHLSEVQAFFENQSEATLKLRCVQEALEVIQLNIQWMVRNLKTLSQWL
observable: activation (%)

> print(dat)
                       smilesrepresentation  measured
1  C[C@@H]1CCCCO[C@@H](CN(C)C)[C@@H](C)CN([C@@H](C)CO)C(=O)c2cc(NS(=O)(=O)c3ccc(Cl)cc3)ccc2O1     -6.93
2  COc1ccc(C(=O)O)cc1S(=O)(=O)Nc1cc(C(F)(F)F)ccc1N1CCCCC1      18.7
3  C[C@H](CO)N1C[C@H](C)[C@H](CN(C)CC2CCCCC2)Oc2c(NC(=O)Nc3ccc4c(c3)OCO4)cccc2C1=O     -3.26
4  O=C(O)c1ccccc1NS(=O)(=O)c1cccc(-n2sc3ccccc3c2=O)c1     -25.6
5  C[C@@H]1CCCCO[C@@H](CN(C)CC2CC2)[C@@H](C)CN([C@H](C)CO)C(=O)c2cc(NS(=O)(=O)c3ccc(Cl)cc3)ccc2O1     -6.39
6  Cc1ccccc1-c1ccc2c(c1)O[C@@H](CN(C)Cc1ccc(C(=O)O)cc1)[C@@H](C)CN([C@H](C)CO)S2(=O)=O      3.78
7  CCCN(C)C[C@@H]1OCCCC[C@H](C)Oc2ccc(NC(=O)Nc3ccc(F)cc3)cc2C(=O)N([C@H](C)CO)C[C@@H]1C     -36.2

Source: PubChem BioAssay AID743339
